Target: p-EGFR L858R (BaF3-L858R cells) (Homo sapiens, UniProt P00533, L858R)
Construct: host or cells: BaF3
Test: Cell p-EGFR inhibition assay, HTRF, BaF3-L858R cells
Format: cell-based
Conditions: 16 h treatment, maximum percentage of pEGFR inhibition
measurement-name: Imax (%)
Report the value in % with no unit label.

* Cc1cc2cc(n1)-c1c(C(F)F)nn(C)c1OC[C@H]1CCC(C1)CN1/C(=N/C2=O)Nc2ccc(N3CCN(C4CCN(c5c(F)cc(NC6CCC(=O)NC6=O)cc5F)CC4)CC3)cc21 (stereo partly shown) | 100.3
* Cc1cc2cc(n1)-c1c(C)nn(C)c1OC[C@H]1CC[C@H](C1)CN1/C(=N/C2=O)Nc2ccc(N3CCN(C4CCN(c5cc(F)c([C@H]6CCC(=O)NC6=O)c(F)c5)CC4)C[C@H]3C)cc21 | 91.5
* CC[C@@H]1CN(c2ccc3c(c2)N2C[C@@H]4CC[C@H](COc5c(c(C)nn5C)-c5cc(cc(C)n5)C(=O)/N=C/2N3)C4)CCN1C1CCN(c2cc(F)c([C@H]3CCC(=O)NC3=O)c(F)c2)CC1 | 90.67

What Imax (%) appears in the records for this compound with p-EGFR L858R (BaF3-L858R cells) (Homo sapiens, UniProt P00533, L858R)? Cc1cc2cc(n1)-c1cnn(C)c1OC[C@H]1CCC(C1)CN1/C(=N/C2=O)Nc2ccc(N3CC4(C3)CN(C3CCN(c5cc(F)c([C@H]6CCC(=O)NC6=O)c(F)c5)CC3)C4)cc21
97.1

====

Each entry below carries its reported Dmax.
Target: EGFR-L858R/C797S (H1975-clone #8 cells) (Homo sapiens, UniProt P00533, C797S/L858R)
Construct: expressed in transfected cells; host or cells: H1975 (endogenous EGFR knocked out, clone #8)
Assay: Cell degradation of EGFR, HTRF assay, H1975-clone#8 (L858R/C797S) cells
Type: cell-based
Settings: 16 h treatment, maximum percentage of degradation

Past entries and their recorded results:
• Cc1cc2cc(n1)-c1c(C)nn(C)c1OC[C@H]1CCC(C1)CN1/C(=N/C2=O)Nc2ccc(N3CCN(C4CCN(c5cc(F)c([C@H]6CCC(=O)NC6=O)c(F)c5)CC4)[C@@H](C)C3)cc21 = 86.9%
• CCc1nc(C2CCC(=O)NC2=O)ccc1N1CCC(N2CCN(c3ccc4c(c3)N3C[C@@H]5CC[C@H](COc6c(cnn6C)-c6cc(cc(C)n6)C(=O)/N=C/3N4)C5)CC2)CC1 (stereo partly shown) = 75.4%
• COC[C@@H]1CN(c2ccc3c(c2)N2C[C@@H]4CC[C@H](COc5c(c(C)nn5C)-c5cc(cc(C)n5)C(=O)/N=C/2N3)C4)CCN1C1CCN(c2c(C)cc(C3CCC(=O)NC3=O)nc2C)CC1 (stereo partly shown) = 63.2%
• Cc1cc2cc(n1)-c1cnn(C)c1OC[C@H]1CC[C@H](C1)CN1/C(=N/C2=O)Nc2ccc(N3CCN(CC4CN(c5ccc6c(c5)CN(C5CCC(=O)NC5=O)C6=O)C4)CC3)cc21 (stereo partly shown) = 58%
• CC[C@@H]1CN(c2ccc3c(c2)N2C[C@@H]4CC[C@H](COc5c(c(C)nn5C)-c5cc(cc(C)n5)C(=O)/N=C/2N3)C4)CCN1C1CCN(c2cc(F)c([C@H]3CCC(=O)NC3=O)c(F)c2)CC1 = 84.9%

Attention now shifts to the item below.
Quick one: Dmax for Cc1cc2cc(n1)-c1c(C)nn(C)c1OC[C@H]1CC[C@H](C1)CN1/C(=N/C2=O)Nc2ccc(N3CCN(C4CCN(c5cc(F)c([C@H]6CCC(=O)NC6=O)c(F)c5)CC4)C[C@H]3CF)cc21 ?
87.9%

====

Target: p-EGFR L858R (BaF3-L858R cells) (Homo sapiens, UniProt P00533, L858R)
Construct: host or cells: BaF3
Experiment: Cell p-EGFR inhibition assay, HTRF, BaF3-L858R cells
Format: cell-based
Details: 16 h treatment, maximum percentage of pEGFR inhibition
measurement-name: Imax (%)
Report the value in % with no unit label.

Past entries and their recorded results:
- COC[C@@H]1CN(c2ccc3c(c2)N2C[C@@H]4CC[C@H](COc5c(cnn5C)-c5cc(cc(C)n5)C(=O)/N=C/2N3)C4)CCN1CC1CN(c2ccc3c(c2)CN(C2CCC(=O)NC2=O)C3=O)C1 (stereo partly drawn): 103
- Cc1cc2cc(n1)-c1c(C)nn(C)c1OC[C@H]1CC[C@H](C1)CN1/C(=N/C2=O)Nc2ccc(N3[C@@H](C)CN(C4CCN(c5cc(F)c([C@H]6CCC(=O)NC6=O)c(F)c5)CC4)C[C@@H]3C)cc21: 101.37
- COC[C@@H]1CN(c2ccc3c(c2)N2CC4CC[C@H](COc5c(c(C)nn5C)-c5cc(cc(C)n5)C(=O)/N=C/2N3)C4)CCN1C1CCN(c2cc(F)c([C@H]3CCC(=O)NC3=O)c(F)c2)CC1: 91.7
- COc1cc2c(cc1N1CCN(C3CCN(c4cc(F)c([C@H]5CCC(=O)NC5=O)c(F)c4)CC3)CC1)N1C[C@@H]3CC[C@H](COc4c(c(C)nn4C)-c4cc(cc(C)n4)C(=O)/N=C/1N2)C3: 95.61
- COC[C@H]1CN(c2ccc3c(c2)N2C[C@@H]4CC[C@H](COc5c(cnn5C)-c5cc(cc(C)n5)C(=O)/N=C/2N3)C4)CCN1C1CCN(c2ccc(C3CCC(=O)NC3=O)nc2C)CC1 (stereo partly drawn): 103
- COC[C@@H]1CN(c2cc3c(cc2OC)N/C2=N\C(=O)c4cc(C)nc(c4)-c4c(C)nn(C)c4OC[C@H]4CC[C@H](C4)CN23)CCN1C1CCN(c2cc(F)c([C@H]3CCC(=O)NC3=O)c(F)c2)CC1: 95.95

Quick one: Imax (%) for Cc1cc2cc(n1)-c1cnn(C)c1OC[C@H]1CCC(C1)CN1/C(=N/C2=O)Nc2ccc(N3CCN(C4CCN(c5c(F)cc(OC6CCC(=O)NC6=O)cc5F)CC4)CC3)cc21 (stereo partly drawn) ?
97.6

Follow-up item: Cc1cc2cc(n1)-c1c(C)nn(C)c1OC[C@H]1CC[C@H](C1)CN1/C(=N/C2=O)Nc2ccc(N3CC(N(C)C4CCN(c5cc(F)c([C@H]6CCC(=O)NC6=O)c(F)c5)CC4)C3)cc21
97.42

Follow-up item: COC[C@@H]1CN(c2ccc3c(c2)N2CC4CC[C@H](COc5c(c(C(F)F)nn5C)-c5cc(cc(C)n5)C(=O)/N=C/2N3)C4)CCN1C1CCN(c2cc(F)c([C@H]3CCC(=O)NC3=O)c(F)c2)CC1
97.5

====

Target: EGFR L858R (BaF3-L858R cells) (Homo sapiens, UniProt P00533, L858R)
Construct: host or cells: BaF3
Test: Cell degradation of EGFR, HTRF assay, BaF3-L858R cells
Type: cell-based
Details: 16 h treatment, EGFR degradation
measurement-name: DC50

- Cc1cc2cc(n1)-c1c(C)nn(C)c1OC[C@H]1CC[C@H](C1)CN1/C(=N/C2=O)Nc2ccc(N3CCC(C)(CN(C)C4CCN(c5cc(F)c([C@H]6CCC(=O)NC6=O)c(F)c5)CC4)CC3)cc21 [Example 168]: 2.96 nM
- Cc1cc2cc(n1)-c1c(C)nn(C)c1OC[C@H]1CC[C@H](C1)CN1/C(=N/C2=O)Nc2ccc(N3CCN(CC4CCN(c5cc(F)c([C@H]6CCC(=O)NC6=O)c(F)c5)CC4)CC3)cc21 [Example 182]: 21.8 nM
- Cc1cc2cc(n1)-c1cnn(C)c1OC[C@H]1CCC(C1)CN1/C(=N/C2=O)Nc2ccc(N3CCC(N4CCC(Oc5cc(F)c([C@H]6CCC(=O)NC6=O)c(F)c5)CC4)CC3)cc21 [Example 113]: 3.49 nM
- Cc1cc2cc(n1)-c1c(C)nn(C)c1OC[C@H]1CCC(C1)CN1/C(=N/C2=O)Nc2ccc(N3CCN(C4CCN(c5cc(F)c([C@H]6CCC(=O)NC6=O)c(F)c5)CC4)[C@@H](C)C3)cc21 [Example 135]: 3.08 nM

Attention now shifts to the item below.
Quick one: DC50 for Cc1cc2cc(n1)-c1cnn(C)c1OC[C@H]1CC[C@H](C1)CN1/C(=N/C2=O)Nc2ccc(N3CCN(C4CCN(c5ccc(OC6CCC(=O)NC6=O)nc5C)CC4)CC3)cc21 (some centres unmarked) [Example 137] ?
2.37 nM

====

Each entry below carries its reported DC50.
Target: EGFR-L858R/C797S (H1975-clone #8 cells) (Homo sapiens, UniProt P00533, C797S/L858R)
Construct: expressed in transfected cells; host or cells: H1975 (endogenous EGFR knocked out, clone #8)
Assay: Cell degradation of EGFR, HTRF assay, H1975-clone#8 (L858R/C797S) cells
Format: cell-based
Conditions: 16 h treatment, EGFR degradation
Report the value in nM with no unit label.

Past entries and their recorded results:
- Cc1cc2cc(n1)-c1cnn(C)c1OC[C@H]1CCC(C1)CN1/C(=N/C2=O)Nc2ccc(N3CCN([C@@H]4CCN(c5ccc(C6CCC(=O)NC6=O)nc5C)CC4(F)F)CC3)cc21 (stereo partly shown): 4.09
- Cc1cc2cc(n1)-c1cnn(C)c1OC[C@H]1CC[C@H](C1)CN1/C(=N/C2=O)Nc2ccc(N3CCC(N4CC(Nc5cc(F)c([C@H]6CCC(=O)NC6=O)c(F)c5)C4)CC3)cc21: 0.41
- Cc1cc2cc(n1)-c1cnn(C)c1OC[C@H]1CC[C@H](C1)CN1/C(=N/C2=O)Nc2ccc(N3CCN([C@@H]4CCN(c5cnc(C6CCC(=O)NC6=O)cc5C)C[C@@H]4F)CC3)cc21 (stereo partly shown): 0.782

Attention now shifts to the item below.
Quick one: DC50 for Cc1cc2cc(n1)-c1c(C)nn(C)c1OC[C@H]1CC[C@H](C1)CN1/C(=N/C2=O)Nc2ccc(N3CCN([C@@H]4CCN(c5ccc(OC6CCC(=O)NC6=O)cc5)C[C@@H]4F)CC3)cc21 (stereo partly shown) ?
0.938

Source: patent US20240425523A1
